test_description: MTT cell viability (cytotoxicity) assay
Type: cell-based, African Green monkey (Cercopithecus aethiops)
test_parameters: African green monkey (Cercopithecus aethiops), VERO kidney cells, 48 h exposure, % of vehicle control, read-out: percentage of cell viability (living cells)

{"query_smiles": "O=c1nc(-c2ccccc2)c2cc([N+](=O)[O-])ccc2[nH]1", "viability at 48 h, 30 µM (%)": 69}
